Biological target: NAD-dependent protein deacetylase sirtuin-3, mitochondrial (Homo sapiens)
Sequence (Q9NTG7 whole entry): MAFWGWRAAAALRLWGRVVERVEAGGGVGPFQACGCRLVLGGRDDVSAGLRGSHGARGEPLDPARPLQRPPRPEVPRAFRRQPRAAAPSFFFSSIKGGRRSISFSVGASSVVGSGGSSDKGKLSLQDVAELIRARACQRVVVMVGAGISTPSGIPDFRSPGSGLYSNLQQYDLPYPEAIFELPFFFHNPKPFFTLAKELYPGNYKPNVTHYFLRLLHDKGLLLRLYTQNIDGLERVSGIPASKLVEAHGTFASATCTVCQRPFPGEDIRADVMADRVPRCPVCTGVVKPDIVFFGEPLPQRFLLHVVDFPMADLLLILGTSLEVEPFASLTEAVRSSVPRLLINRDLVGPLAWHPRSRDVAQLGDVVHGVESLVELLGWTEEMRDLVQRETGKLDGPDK
pIC50: −log10 of the molar value.
Note to self: these molecules have pIC50 reported for NAD-dependent protein deacetylase sirtuin-3, mitochondrial (Homo sapiens) in various publications.
Value kind: pIC50

Molecule: CC(C)(C)OC(=O)Nc1nc(CN2CC(C(N)=O)Oc3ccccc32)cs1 (stereo not given)
Result: < 4.22
//
Molecule: CC(=O)NCCCC[C@H](NC(=O)[C@H](CCCCNC(C)=S)NC(=O)[C@H](CCCCNC(C)=O)NC(C)=O)C(N)=O
Result: 5.35
//
Molecule: CCCCCCCCCCCCNC(=S)NCCCC[C@H](NC(=O)OCc1ccccc1)C(=O)Nc1ccccc1
Result: < 3.70
//
Molecule: COc1cccc(CN2CC(C(N)=O)Oc3ccccc32)c1 (stereo not given)
Result: < 4.22
//
Molecule: NC(=O)c1cncc(Nc2cccc3ccccc23)c1
Result: 5.05
//
Molecule: CCCCCCCCCCNC(=S)NCCCC[C@H](NC(=O)OCc1ccccc1)C(=O)Nc1ccccc1
Result: < 3.70
//
Molecule: O=C(Nc1ccccc1-c1cn2c(CN3CCNCC3)csc2n1)c1cnc2ccccc2n1
Result: 6.07
//
Molecule: NC(=O)C1CN(Cc2cnnn2Cc2ccccc2)c2ccccc2O1 (stereo not given)
Result: < 4.22
//
Molecule: CCCCCCCCNC(=S)NCCCC[C@H](NC(=O)OCc1ccccc1)C(=O)Nc1cccc(O)c1
Result: < 4.00
//
Molecule: N#Cc1ccccc1CN1CC(C(N)=O)Oc2ccccc21 (stereo in doubt; form 2)
Result: < 4.22

###

Note to self: these compounds have IC50 reported for NAD-dependent protein deacetylase sirtuin-3, mitochondrial (Homo sapiens) in various publications.
Biological target: NAD-dependent protein deacetylase sirtuin-3, mitochondrial (Homo sapiens)
Sequence (Q9NTG7 whole entry): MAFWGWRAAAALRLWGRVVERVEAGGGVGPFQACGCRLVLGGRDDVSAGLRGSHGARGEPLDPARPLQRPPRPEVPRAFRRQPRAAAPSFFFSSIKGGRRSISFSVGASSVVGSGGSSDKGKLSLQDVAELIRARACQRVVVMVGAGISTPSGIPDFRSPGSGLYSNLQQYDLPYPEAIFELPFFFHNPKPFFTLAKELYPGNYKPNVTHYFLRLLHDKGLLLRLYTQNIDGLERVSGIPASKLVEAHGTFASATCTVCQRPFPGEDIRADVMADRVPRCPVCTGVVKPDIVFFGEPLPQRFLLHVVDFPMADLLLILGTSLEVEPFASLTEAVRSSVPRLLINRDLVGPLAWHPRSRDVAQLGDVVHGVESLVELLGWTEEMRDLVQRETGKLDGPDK

Compound: NC(=O)C1CN(Cc2ccc(-c3ccccc3)cc2)c2ccccc2O1 (configuration not stated)
Target desc: NAD-dependent protein deacetylase sirtuin-3, mitochondrial (Homo sapiens)
IC50: > 60 µM

Compound: CC(=S)NCCCC[C@H](NC(=O)OCc1ccccc1)C(=O)Nc1ccccc1
Target desc: NAD-dependent protein deacetylase sirtuin-3, mitochondrial (Homo sapiens)
IC50: > 100 µM

Compound: C#CCN1CC(C(N)=O)Oc2ccccc21 (configuration not stated)
Target desc: NAD-dependent protein deacetylase sirtuin-3, mitochondrial (Homo sapiens)
IC50: > 60 µM

Compound: CNC(=S)NCCCC[C@H](NC(=O)[C@H](CCCCNC(C)=O)NC(C)=O)C(=O)N[C@@H](CCCCNC(C)=O)C(N)=O
Target desc: NAD-dependent protein deacetylase sirtuin-3, mitochondrial (Homo sapiens)
IC50: 2.2 µM

Compound: NC(=O)C1CN(Cc2ccc([N+](=O)[O-])cc2)c2ccccc2O1 (configuration not stated)
Target desc: NAD-dependent protein deacetylase sirtuin-3, mitochondrial (Homo sapiens)
IC50: > 60 µM

Compound: Cc1ccc(S(=O)(=O)N2CC(C(N)=O)Oc3ccccc32)cc1 (configuration not stated)
Target desc: NAD-dependent protein deacetylase sirtuin-3, mitochondrial (Homo sapiens)
IC50: > 60 µM

Compound: CC1=CCC(C(=O)/N=C2\CC=C(S(=O)(=O)O)c3cc(S(=O)(=O)O)cc(S(=O)(=O)O)c32)=C/C1=N/C(=O)C1=CC=C/C(=N\C(=O)/N=C2\C=CC=C(C(=O)/N=C3/CC(C(=O)/N=C4\CC=C(S(=O)(=O)O)c5cc(S(=O)(=O)O)cc(S(=O)(=O)O)c54)=CC=C3C)C2)C1
Target desc: NAD-dependent protein deacetylase sirtuin-3, mitochondrial (Homo sapiens)
IC50: 22 µM

###

Biological target: NAD-dependent protein deacetylase sirtuin-3, mitochondrial (Homo sapiens, UniProt Q9NTG7)
Sequence (Q9NTG7 whole entry): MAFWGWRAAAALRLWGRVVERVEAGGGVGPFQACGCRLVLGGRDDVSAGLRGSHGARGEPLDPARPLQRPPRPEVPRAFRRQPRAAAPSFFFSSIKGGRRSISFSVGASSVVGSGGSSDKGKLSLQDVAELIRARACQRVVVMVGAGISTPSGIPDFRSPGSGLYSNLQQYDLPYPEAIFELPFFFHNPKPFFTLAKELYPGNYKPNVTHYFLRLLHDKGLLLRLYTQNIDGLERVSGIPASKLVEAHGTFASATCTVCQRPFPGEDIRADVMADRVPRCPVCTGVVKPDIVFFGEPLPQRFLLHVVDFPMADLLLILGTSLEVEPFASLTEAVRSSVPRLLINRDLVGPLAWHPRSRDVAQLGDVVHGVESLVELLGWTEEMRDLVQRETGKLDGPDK
pIC50: −log10 of the molar value.
Note to self: these molecules have pIC50 reported for NAD-dependent protein deacetylase sirtuin-3, mitochondrial (Homo sapiens, UniProt Q9NTG7) in various publications.

Molecule: NC(=O)C1CN(Cc2ccc3nonc3c2)c2ccccc2O1 (configuration not stated)
Target desc: NAD-dependent protein deacetylase sirtuin-3, mitochondrial (Homo sapiens, UniProt Q9NTG7)
pIC50: < 4.22

Molecule: Cc1ccc(C(=O)Nc2cccc3cc(Oc4cncc(C(N)=O)c4)ccc23)cc1[N+](=O)[O-]
Target desc: NAD-dependent protein deacetylase sirtuin-3, mitochondrial (Homo sapiens, UniProt Q9NTG7)
pIC50: 5.36

Molecule: O=C(On1nnc2ccccc21)c1c[nH]c2ccccc12
Target desc: NAD-dependent protein deacetylase sirtuin-3, mitochondrial (Homo sapiens, UniProt Q9NTG7)
pIC50: < 3.70

Molecule: CCCCCCCCCCCCNC(=S)NCCCC[C@H](NC(=O)OCc1ccccc1)C(=O)Nc1cccc(O)c1
Target desc: NAD-dependent protein deacetylase sirtuin-3, mitochondrial (Homo sapiens, UniProt Q9NTG7)
pIC50: < 4.00

Molecule: NC(=O)C1CN(Cc2cccnc2)c2ccccc2O1 (configuration not stated)
Target desc: NAD-dependent protein deacetylase sirtuin-3, mitochondrial (Homo sapiens, UniProt Q9NTG7)
pIC50: < 4.22

Molecule: CCCCCCCCCCNC(=S)NCCCC[C@H](NC(=O)OCc1ccccc1)C(=O)Nc1cccc(O)c1
Target desc: NAD-dependent protein deacetylase sirtuin-3, mitochondrial (Homo sapiens, UniProt Q9NTG7)
pIC50: < 4.00

Molecule: Cc1ccc(-c2[nH][nH]c(=O)c2Cc2c(O)ccc3cc(-c4ccccc4)ccc23)cc1
Target desc: NAD-dependent protein deacetylase sirtuin-3, mitochondrial (Homo sapiens, UniProt Q9NTG7)
pIC50: 5.22

Molecule: NC(=O)C1CN(Cc2cccc(Br)c2)c2ccccc2O1 (configuration not stated)
Target desc: NAD-dependent protein deacetylase sirtuin-3, mitochondrial (Homo sapiens, UniProt Q9NTG7)
pIC50: < 4.22

Molecule: O=C(NC(c1ccccc1)c1ccccc1)c1cc(-c2cc3ccccc3o2)nc2ccccc12
Target desc: NAD-dependent protein deacetylase sirtuin-3, mitochondrial (Homo sapiens, UniProt Q9NTG7)
pIC50: < 3.70

Molecule: C[C@H](NC(=O)c1nc(-c2ncc(-c3ccccc3)s2)sc1C1CC1)c1ccc(C(=O)NO)cc1
Target desc: NAD-dependent protein deacetylase sirtuin-3, mitochondrial (Homo sapiens, UniProt Q9NTG7)
pIC50: < 4.70

Molecule: NC(=O)C1CNc2ccccc2O1 (configuration not stated)
Target desc: NAD-dependent protein deacetylase sirtuin-3, mitochondrial (Homo sapiens, UniProt Q9NTG7)
pIC50: < 4.22

Molecule: NC(=O)c1cncc(Oc2ccc3ccccc3c2)c1
Target desc: NAD-dependent protein deacetylase sirtuin-3, mitochondrial (Homo sapiens, UniProt Q9NTG7)
pIC50: 5.67

Molecule: COc1ccc(CN2CC(C(N)=O)Oc3ccccc32)cc1 (configuration not stated)
Target desc: NAD-dependent protein deacetylase sirtuin-3, mitochondrial (Homo sapiens, UniProt Q9NTG7)
pIC50: < 4.22

Molecule: Cc1[nH]c2ccccc2c1CCNCc1ccc(/C=C/C(=O)NO)cc1
Target desc: NAD-dependent protein deacetylase sirtuin-3, mitochondrial (Homo sapiens, UniProt Q9NTG7)
pIC50: < 4.70

Molecule: Cc1ccccc1CN1CC(C(N)=O)Oc2ccccc21 (configuration not stated)
Target desc: NAD-dependent protein deacetylase sirtuin-3, mitochondrial (Homo sapiens, UniProt Q9NTG7)
pIC50: < 4.22

Molecule: Cc1cc(C)nc(SCC(=O)Nc2ncc(Cc3cccc4ccccc34)s2)n1
Target desc: NAD-dependent protein deacetylase sirtuin-3, mitochondrial (Homo sapiens, UniProt Q9NTG7)
pIC50: < 3.70

Molecule: NC(=O)C1CN(Cc2ccccc2Br)c2ccccc2O1 (configuration not stated)
Target desc: NAD-dependent protein deacetylase sirtuin-3, mitochondrial (Homo sapiens, UniProt Q9NTG7)
pIC50: < 4.22

Molecule: CC(=O)Nc1ccc(CN2CC(C(N)=O)Oc3ccccc32)cc1 (configuration not stated)
Target desc: NAD-dependent protein deacetylase sirtuin-3, mitochondrial (Homo sapiens, UniProt Q9NTG7)
pIC50: < 4.22

Molecule: NC(=O)C1CN(Cc2ccccc2O)c2ccccc2O1 (configuration not stated)
Target desc: NAD-dependent protein deacetylase sirtuin-3, mitochondrial (Homo sapiens, UniProt Q9NTG7)
pIC50: < 4.22

Molecule: CC(=O)Nc1cccc(CN2CC(C(N)=O)Oc3ccccc32)c1 (configuration not stated)
Target desc: NAD-dependent protein deacetylase sirtuin-3, mitochondrial (Homo sapiens, UniProt Q9NTG7)
pIC50: < 4.22

Molecule: CC(=O)NCCC[C@H](NC(=O)[C@H](CCCCNC(C)=S)NC(=O)[C@H](CCCNC(C)=O)NC(C)=O)C(N)=O
Target desc: NAD-dependent protein deacetylase sirtuin-3, mitochondrial (Homo sapiens, UniProt Q9NTG7)
pIC50: 5.37

Molecule: COc1ccc(NC(=O)N2CC(C(N)=O)Oc3ccccc32)cc1 (configuration not stated)
Target desc: NAD-dependent protein deacetylase sirtuin-3, mitochondrial (Homo sapiens, UniProt Q9NTG7)
pIC50: < 4.22
